Test system: MCF-7
Assay: MTS cytotoxicity assay
Conditions: Homo sapiens, MCF7, read-out: IC50, MCF-7
recorded_endpoint: pIC50
By convention, pIC50 is the negative base-10 log of a molar concentration.

Ask: Param item = COc1cccc2c1C(=O)c1c(O)c3c(c(O)c1C2=O)C[C@@](O)(C(=O)CO)C[C@@H]3O[C@H]1C[C@H](N)[C@H](O)[C@H](C)O1 [DOX, Doxorubicin, reference compound] ; retrieve measured pIC50.
Reply: 7.30

----------
# reported pIC50; entries follow
Test system: MCF-7
Assay: MTS cytotoxicity assay
Conditions: Homo sapiens, MCF7, 72 h, read-out: Cytotoxic concentration IC50, MCF-7
By convention, pIC50 is the negative base-10 log of a molar concentration.

molecule	pIC50
COc1cccc2c1C(=O)c1c(O)c3c(c(O)c1C2=O)C[C@@](O)(C(=O)CO)C[C@@H]3O[C@H]1C[C@H](N)[C@H](O)[C@H](C)O1 [DOX, Doxorubicin, reference compound]	7.05
COc1cccc2c1C(=O)c1c(O)c3c(c(O)c1C2=O)CC(O)(C(=O)CO)CC3OC1CC(NC(=O)c2cnc(C)c3c2COC(C)(C)O3)C(O)C(C)O1 (stereo not drawn)	5.73

Next molecule, pIC50 to be filled in.
Ask: Param item = COc1cccc2c1C(=O)c1c(O)c3c(c(O)c1C2=O)CC(O)(C(=O)CO)CC3OC1CC(NC(=O)/C=C/c2cnc(C)c3c2COC(C)(C)O3)C(O)C(C)O1 (stereo not drawn) ; retrieve measured pIC50.
Reply: 6.11
